Reference source: PubChem BioAssay AID1259407

tested on: CCRIS mutagenicity, Ames/micronucleus/aberration tests; assay: CCRIS mutagenicity studies; conditions: Test System: AMES SALMONELLA TYPHIMURIUM; Strain/Indicator: TA100; Metabolic Activation: NONE; Method: STANDARD PLATE
Active and inactive are the calls of the source. How the calls were made is not given here.
Outcomes: active, inactive

Compound: CC[C@@H](C)OS(C)(=O)=O
Discrete Label: inactive
--
Compound: Nc1ccc(N)c2c1C(=O)c1c(N)ccc(N)c1C2=O
Discrete Label: inactive
--
Compound: NC(CO)C(=O)NNCc1ccc(O)c(O)c1O (stereo not given)
Discrete Label: active
--
Compound: O=C1CC(c2ccc(O)cc2)Oc2cc(O)cc(O)c21 (stereo not given)
Discrete Label: inactive
--
Compound: COCCCN
Discrete Label: inactive
--
Compound: O=C(O)CCc1ccccc1
Discrete Label: inactive
--
Compound: CCCCON(OC(C)=O)C(=O)c1ccc(C(C)(C)C)cc1
Discrete Label: active
--
Compound: CC1(C)CC(O)CC(C)(C)N1[O]
Discrete Label: active
--
Compound: CC(Br)C(=O)N(C)Cc1ccccc1 (stereo not given)
Discrete Label: inactive
--
Compound: CC(=O)OC(C)=O
Discrete Label: inactive

----------
system: CCRIS mutagenicity, Ames/micronucleus/aberration tests; assay: CCRIS mutagenicity studies; settings: Test System: E. COLI; Strain/Indicator: WP2; Metabolic Activation: NONE; Method: STANDARD PLATE
The source made the active and inactive calls. No rule for the calls is given here.
Outcomes: active, inactive

Smiles Text: S=C([S-])NCCNC(=S)[S-].[Zn+2]
Discrete Label: inactive
--
Smiles Text: O=C(O)c1ccccc1
Discrete Label: inactive
--
Smiles Text: CCCCCCCCCCCCCCCCCCO
Discrete Label: inactive
--
Smiles Text: CCCCCCCCCCCCCCCC(=O)OC[C@H](O)[C@H]1OC(=O)C(O)=C1O
Discrete Label: inactive
--
Smiles Text: CCCOC(=O)c1cc(O)c(O)c(O)c1
Discrete Label: inactive
--
Smiles Text: COP(=O)(OC)OC=C(Cl)Cl
Discrete Label: active
--
Smiles Text: CN(Cc1cnc2nc(N)nc(N)c2n1)c1ccc(C(=O)N[C@@H](CCC(=O)O)C(=O)O)cc1
Discrete Label: active
--
Smiles Text: O=[N+]([O-])O
Discrete Label: inactive

----------
tested on: CCRIS mutagenicity, Ames/micronucleus/aberration tests; assay: CCRIS mutagenicity studies; conditions: Test System: AMES SALMONELLA TYPHIMURIUM; Strain/Indicator: TA98; Metabolic Activation: NONE; Method: STANDARD PLATE
Calls of active or inactive are those of the source. How the calls were made is not given here.
Outcomes: t = active, f = inactive

Compound: CN[C@H]1CCc2cc(OC)c(OC)c(OC)c2-c2ccc(OC)c(=O)cc21
Discrete Label: f
//
Compound: CC(N)=O
Discrete Label: f
//
Compound: CCC(C)ON=O (configuration not stated)
Discrete Label: f
//
Compound: c1ccc2c(c1)-c1cc3ccccc3cc1[C@H]1O[C@@H]21
Discrete Label: t
//
Compound: Cl/C=C/Cl
Discrete Label: f
//
Compound: Nc1cc(CCO)c(N)c([N+](=O)[O-])c1
Discrete Label: t
//
Compound: O=C1c2cccc(O)c2C(=O)c2c(O)cccc21
Discrete Label: f
//
Compound: CC(=O)C(Cl)(Cl)Cl
Discrete Label: t
//
Compound: CC(Cc1ccc(O)c(O)c1)C(C)Cc1ccc(O)c(O)c1 (configuration not stated)
Discrete Label: f
//
Compound: Nc1cc([N+](=O)[O-])c(N)cc1F
Discrete Label: t
//
Compound: CC1=Nc2ccccc2C1(C)C
Discrete Label: f
//
Compound: Nc1c(N=Nc2ccc(-c3ccc(N=Nc4cc(S(=O)(=O)O)c5ccccc5c4N)cc3)cc2)cc(S(=O)(=O)O)c2ccccc12
Discrete Label: f
//
Compound: COc1c2ccoc2c(OC)c2oc(=O)ccc12
Discrete Label: f
//
Compound: Nc1cc(Cl)c(Cl)c(Cl)c1
Discrete Label: f
//
Compound: Nc1ccc(N(c2ccc3ccccc3c2)c2ccc3ccccc3c2)cc1
Discrete Label: f
//
Compound: O=[N+]([O-])c1cc2c3c(c1)CCc1cccc(c1-3)CC2
Discrete Label: t
//
Compound: CCC(CCC(C)=O)COC(=O)c1ccccc1C(=O)O (configuration not stated)
Discrete Label: f
//
Compound: O=C(O)CC(O)(CC(=O)O)C(=O)O
Discrete Label: f
//
Compound: CC(Br)c1ccccc1 (configuration not stated)
Discrete Label: f
//
Compound: CCCCCCCCCCCCCCCC(=O)OC/C=C(C)/C=C/C=C(C)/C=C/C1=C(C)CCCC1(C)C
Discrete Label: f
//
Compound: CNCCC=C1c2ccccc2CCc2ccccc21
Discrete Label: f
//
Compound: CCCCCCCCCCCCCCCC(=O)OC[C@H](O)[C@H]1OC(=O)C(O)=C1O
Discrete Label: f
//
Compound: Cn1c(N)nc2c3cccnc3ccc21
Discrete Label: f
//
Compound: O=c1[nH][nH]c2ccccc12
Discrete Label: f
//
Compound: O=CC(Cl)=C(Cl)Cl
Discrete Label: t
//
Compound: C1=CC2OC2c2ccc3c4c5c(cccc5cc3c21)C=C4 (configuration not stated)
Discrete Label: f
//
Compound: Nc1c(Oc2ccccc2)cc(O)c2c1C(=O)c1ccccc1C2=O
Discrete Label: t
//
Compound: O=c1oc2cccc3ccc4c5ccccc5cc1c4c32
Discrete Label: f
//
Compound: O=NN1CCSC1[C@H](O)[C@@H](O)[C@@H](O)CO (some centres not stated)
Discrete Label: f
//
Compound: Cc1ccc2ccc3ccccc3c2c1C
Discrete Label: f
//
Compound: BrCc1cc2c3c(cccc3c1)-c1ccccc1-2
Discrete Label: t
//
Compound: O=C([O-])c1cccnc1Nc1cccc(C(F)(F)F)c1.O=C([O-])c1cccnc1Nc1cccc(C(F)(F)F)c1.OCc1cccnc1.OCc1cccnc1.[Cu+2]
Discrete Label: f
//
Compound: O=[N+]([O-])c1ccccc1C(F)(F)F
Discrete Label: f
//
Compound: CC(=O)Nc1ccc2c3c(cccc13)-c1cc(O)ccc1-2
Discrete Label: t
//
Compound: COP(=O)(OC)C(O)C(Cl)(Cl)Cl (configuration not stated)
Discrete Label: f
//
Compound: ClCC(CCl)(CCl)CCl
Discrete Label: f
//
Compound: O=C(Nc1cccc(F)c1)c1csc([N+](=O)[O-])c1
Discrete Label: t
//
Compound: O=[N+]([O-])C1=Cc2cccc3c2c1cc1ccc2ccccc2c13
Discrete Label: t
//
Compound: CSC(C)(C)/C=N/O
Discrete Label: f
//
Compound: C[C@]12CC[C@H](O)C[C@@H]1CC[C@@H]1[C@@H]2CC[C@]2(C)NC(=O)CC[C@@H]12
Discrete Label: f
//
Compound: S=C=NCCc1ccccc1
Discrete Label: f
//
Compound: CC[C@@]1(O)C[C@H](O[C@H]2C[C@H](N(C)C)[C@H](O[C@H]3C[C@H](O)[C@H](O[C@H]4CCC(=O)[C@H](C)O4)[C@H](C)O3)[C@H](C)O2)c2c(cc3c(c2O)C(=O)c2c(O)cccc2C3=O)[C@H]1C(=O)OC
Discrete Label: f
